test system: lysine peptide Ac-RFAAKAA-COOH; test: efficacy of lysine peptide change (negative = depletion) (% activity); higher = less depletion; details: incubation time: 24 h
Recorded efficacy of lysine peptide change by entry
METRIC: efficacy of lysine peptide change

>>> reported("O=C(O)c1ccc(=O)[nH]c1 [6-Hydroxynicotinic acid]")
-6.78
>>> reported("COc1ccc(C(=O)c2ccc(C)cc2)c(O)c1 [Mexenone]")
9.47
>>> reported("CN1C[C@H](C(=O)N[C@]2(C)O[C@@]3(O)[C@@H]4CCCN4C(=O)[C@H](Cc4ccccc4)N3C2=O)C=C2c3cccc4[nH]cc(c34)C[C@H]21 [Ergotamine D-tartrate*]")
14.3
>>> reported("CC(COc1ccc(Oc2ccccc2)cc1)Oc1ccccn1 (stereo not given) [Pyriproxyfen]")
-7.08
>>> reported("COc1cccc2c1C(=O)c1c(O)c3c(c(O)c1C2=O)C[C@@](O)(C(=O)CO)C[C@@H]3O[C@H]1C[C@H](N)[C@H](O)[C@H](C)O1 [Doxorubicin*]")
-21.7
>>> reported("O=C(Nc1ccccc1)c1cc(Cl)ccc1O [5-Chlorosalicylanilide]")
77.4
>>> reported("CCNc1nc(NC(C)(C)C)nc(SC)n1 [Terbutryn]")
139
>>> reported("CCOP(=S)(OCC)Oc1cnc2ccccc2n1 [Quinalphos]")
10.6
>>> reported("COP(=O)(OC)O/C(=C\\Cl)c1cc(Cl)c(Cl)cc1Cl [Z-Tetrachlorvinphos]")
75.2
>>> reported("CCCCCCC(C)O (stereo not given) [2-Octanol]")
-5.58

====

tested on: cysteine peptide Ac-RFAACAA-COOH; experiment: AC50 of cysteine peptide concentration-response (direction given by sign of efficacy); higher = less potent; details: incubation time: 24 h
METRIC: AC50 (µM)

>>> reported("CC(O)C#CC(C)O (stereo not given)")
4.16
>>> reported("COP(=S)(OC)Oc1nc(Cl)c(Cl)cc1Cl")
6.5
>>> reported("CN(C)c1ccc(N)cc1")
8.18
>>> reported("OCc1ccco1")
74.3
>>> reported("c1ccc2sc(SNC3CCCCC3)nc2c1 [N-Cyclohexyl-2-benzothiazolesulfenamide]")
11.1
>>> reported("O=C1c2cccc(O)c2C(=O)c2c(O)cccc21")
4.77
>>> reported("c1ccc2cc3c(ccc4ccccc43)cc2c1")
12.2
>>> reported("CC/C=C\\C/C=C\\C/C=C\\CCCCCCCC(=O)OCC [Ethyl linolenate]")
9.27
>>> reported("COC(=O)Nc1nc2ccc(C(=O)C3CC3)cc2[nH]1")
10.1
>>> reported("CC1=C(/C=C/C(C)=C/C=C/C(C)=C/C=O)C(C)(C)CCC1 [13-cis-Retinal (Vitamin A aldehyde)]")
38.7
>>> reported("Cc1c2ccccc2c(C)c2c1ccc1ccccc12")
19.4
>>> reported("CCN(CC)CCSC(=O)C(c1ccccc1)c1ccccc1")
18.7
>>> reported("CCCCCCCCn1sc(Cl)c(Cl)c1=O")
0.88
>>> reported("O=C(/C=C/C=C/c1ccc2c(c1)OCO2)N1CCCCC1")
80.8
>>> reported("CC(C)=CCC/C(C)=C\\CO")
62.8
>>> reported("NC(=S)NC(N)=S")
3.18
>>> reported("CCOc1ccc2nc3cc(N)ccc3c(N)c2c1 [Ethacridine lactate monohydrate]")
0.29
>>> reported("O=C(O)c1cc(O)c2ccccc2c1O [1,4-dihydroxy-2-naphthoic acid*]")
4.18
>>> reported("O=C(N/N=C/c1ccc([N+](=O)[O-])o1)c1cc([N+](=O)[O-])cc([N+](=O)[O-])c1O")
77.9
>>> reported("[CH3][Hg][Cl] [Methyl mercuric (II) chloride]")
46.5
